Target: recombinant N-terminal GST-tagged human Rho kinase 1 (ROCK1, amino acids 1-535) (Homo sapiens, UniProt Q13464)
Construct: ROCK1, amino acids 1-535; purchased Invitrogen Inc. PV-3691
Sequence (Q13464 1-535): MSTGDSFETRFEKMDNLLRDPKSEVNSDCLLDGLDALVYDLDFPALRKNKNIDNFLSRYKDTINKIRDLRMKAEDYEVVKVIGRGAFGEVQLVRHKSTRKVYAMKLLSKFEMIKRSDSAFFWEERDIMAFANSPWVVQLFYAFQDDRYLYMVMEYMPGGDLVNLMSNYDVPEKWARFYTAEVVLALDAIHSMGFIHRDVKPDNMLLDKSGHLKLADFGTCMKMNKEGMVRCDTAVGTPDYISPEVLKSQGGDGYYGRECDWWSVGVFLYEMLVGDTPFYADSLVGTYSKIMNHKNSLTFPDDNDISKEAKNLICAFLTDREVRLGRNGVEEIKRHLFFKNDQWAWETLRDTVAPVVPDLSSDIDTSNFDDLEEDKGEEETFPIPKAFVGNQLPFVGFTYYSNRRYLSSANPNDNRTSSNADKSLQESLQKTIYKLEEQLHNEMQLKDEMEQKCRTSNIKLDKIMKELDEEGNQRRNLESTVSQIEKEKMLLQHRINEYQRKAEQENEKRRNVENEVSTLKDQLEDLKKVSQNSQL
Test: In vitro Rho kinase assay (luciferase-based ATP consumption), ROCK1
Format: biochemical
Conditions: recombinant GST-tagged human ROCK1, luciferase-based ATP consumption; read-out: ROCK1 IC50
Property Name: IC50

Use the examples below as a reference point.
{"Compound": "Cc1c(-c2ccnc(N)n2)sc2ccc(CNC(=O)c3ccc(C(C)C)cc3)cc12 [Example 166]", "IC50": "> 5 µM"}
{"Compound": "Cc1cccc(CCC(=O)NCc2ccc3sc(-c4ccnc(N)n4)c(C)c3c2)c1 [Example 168]", "IC50": "< 5 µM"}
{"Compound": "COc1cc(Cl)ccc1C(=O)NCc1ccc2sc(-c3ccnc(N)n3)c(C)c2c1 [Example 233]", "IC50": "< 5 µM"}
{"Compound": "Cc1c(-c2ccnc(N)n2)sc2ccc(CNC(=O)C3Cc4ccccc4CN3C(=O)OC(C)(C)C)cc12 (centres unmarked) [Example 327]", "IC50": "< 5 µM"}
{"Compound": "COc1cccc(C#Cc2ccc3sc(-c4ccnc(N)n4)c(C)c3c2)c1 [Example 89]", "IC50": "> 5 µM"}
{"Compound": "Cc1c(-c2ccnc(N)n2)sc2ccc(CNC(=O)C=Cc3ccccc3)cc12 [Example 128]", "IC50": "< 5 µM"}

List the reported IC50 of each compound below.
1. Cc1c(-c2ccnc(N)n2)sc2ccc(CNC(=O)C(C)c3ccc(CC(C)C)cc3)cc12 (centres unmarked) [Example 274]
2. COc1ccc(Br)c(C(=O)NCc2ccc3sc(-c4ccnc(N)n4)c(C)c3c2)c1 [Example 310]

### Response
1: > 5 µM; 2: > 5 µM

###

Give pIC50 for every item shown.
Biological target: recombinant N-terminal GST-tagged human Rho kinase 2 (ROCK2, amino acids 1-552) (Homo sapiens)
Construct: ROCK2, amino acids 1-552; purchased Invitrogen Inc. PV3759
Test: In vitro Rho kinase assay (luciferase-based ATP consumption), ROCK2
Format: biochemical
Settings: recombinant GST-tagged human ROCK2, luciferase-based ATP consumption; read-out: ROCK2 IC50
Method: In Vitro Rho Kinase Assay Rho kinase biochemical assays described below depend on firefly luciferase-based, indirect measurement of total ATP consumption by the kinase following incubation with substrate and ATP. […] After an additional 10 minute incubation at room temperature (about 22° C.), luminescence activity is measured on a Molecular Devices Analyst multi-mode plate reader or other suitable plate reader. […] Negative control activity is measured with DMSO lacking any test compound. […]
pIC50: −log10 of the molar value.

// solved cases for pIC50 follow
{"Molecule": "COc1ccc(Cl)cc1C(=O)NCc1ccc2sc(-c3ccnc(N)n3)c(C)c2c1 [Example 232]", "Meas Value": "> 5.30"}
{"Molecule": "Cc1c(-c2ccnc(N)n2)sc2ccc(C(=O)NCCc3ccccc3F)cc12 [Example 406]", "Meas Value": "> 5.30"}
{"Molecule": "Cc1c(-c2ccnc(N)n2)sc2ccc(CNC(=O)c3cc(F)c(Cl)cc3F)cc12 [Example 253]", "Meas Value": "> 5.30"}

Working through the 3 molecules below one at a time, give pIC50 for each.
1. CC(=O)Oc1ccccc1C(=O)NCc1ccc2sc(-c3ccnc(N)n3)c(C)c2c1 [Example 211]
2. COc1cccc(Oc2ccc3sc(-c4ccnc(N)n4)c(C)c3c2)c1 [Example 81]
3. Cc1c(-c2ccnc(N)n2)sc2ccc(C(=O)NCc3cccnc3)cc12 [Example 364]

### Response
["> 5.30", "> 5.30", "> 5.30"]

###

I'd appreciate it if you could supply IC50 values for the items below.
Biological target: recombinant N-terminal GST-tagged human Rho kinase 2 (ROCK2, amino acids 1-552) (Homo sapiens, UniProt O75116)
Construct: ROCK2, amino acids 1-552; purchased Invitrogen Inc. PV3759
Sequence (O75116 1-552): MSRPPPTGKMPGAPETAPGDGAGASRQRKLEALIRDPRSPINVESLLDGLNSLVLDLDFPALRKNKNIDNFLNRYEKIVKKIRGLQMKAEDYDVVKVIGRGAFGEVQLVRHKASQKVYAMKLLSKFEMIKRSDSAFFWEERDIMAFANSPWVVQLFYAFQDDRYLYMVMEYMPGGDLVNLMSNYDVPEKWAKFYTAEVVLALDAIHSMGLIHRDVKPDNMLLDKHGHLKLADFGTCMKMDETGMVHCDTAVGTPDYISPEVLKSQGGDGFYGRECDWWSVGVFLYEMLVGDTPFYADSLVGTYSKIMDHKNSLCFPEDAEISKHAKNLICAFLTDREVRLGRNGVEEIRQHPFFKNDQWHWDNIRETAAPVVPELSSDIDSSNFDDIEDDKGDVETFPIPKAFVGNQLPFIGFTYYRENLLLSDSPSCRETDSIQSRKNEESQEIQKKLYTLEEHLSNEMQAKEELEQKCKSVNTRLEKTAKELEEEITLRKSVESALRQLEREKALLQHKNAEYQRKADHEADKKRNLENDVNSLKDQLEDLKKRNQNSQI
Assay: In vitro Rho kinase assay (luciferase-based ATP consumption), ROCK2
Assay type: biochemical
Details: recombinant GST-tagged human ROCK2, luciferase-based ATP consumption; read-out: ROCK2 IC50
Experimental: In Vitro Rho Kinase Assay Rho kinase biochemical assays described below depend on firefly luciferase-based, indirect measurement of total ATP consumption by the kinase following incubation with substrate and ATP. […] After an additional 10 minute incubation at room temperature (about 22° C.), luminescence activity is measured on a Molecular Devices Analyst multi-mode plate reader or other suitable plate reader. […] Negative control activity is measured with DMSO lacking any test compound. […]

{"Compound": "Cc1c(-c2ccnc(N)n2)sc2ccc(C(=O)N3CCN(c4ccccn4)CC3)cc12", "Meas Value": "> 5 µM"}
{"Compound": "Cc1c(-c2ccnc(N)n2)sc2ccc(CNC(=O)C=Cc3ccccc3)cc12", "Meas Value": "< 5 µM"}
{"Compound": "Cc1c(-c2ccnc(N)n2)sc2ccc(C(=O)N(C)CCc3ccccc3)cc12", "Meas Value": "< 5 µM"}
{"Compound": "Cc1c(-c2ccnc(N)n2)sc2ccc(C(=O)NC3CC(C)(C)NC(C)(C)C3)cc12", "Meas Value": "< 5 µM"}
{"Compound": "Cc1c(-c2ccnc(N)n2)sc2ccc(CNC(=O)c3cc([N+](=O)[O-])ccc3F)cc12", "Meas Value": "< 5 µM"}

Would you be so kind as to report IC50 for each listed record?
1. Cc1c(-c2ccnc3[nH]ccc23)sc2ccc(Cl)cc12
2. Cc1c(-c2ccnc(N)n2)sc2ccc(C(=O)NC3CCc4ccccc43)cc12 (centres unmarked)
3. COC(=O)c1ccc(C(=O)NCc2ccc3sc(-c4ccnc(N)n4)c(C)c3c2)cc1

### Response
> 5 µM
< 5 µM
< 5 µM

###

Answer each item with its documented IC50.
Target: recombinant N-terminal GST-tagged human Rho kinase 2 (ROCK2, amino acids 1-552) (Homo sapiens, UniProt O75116)
Construct: ROCK2, amino acids 1-552; purchased Invitrogen Inc. PV3759
Assay: In vitro Rho kinase assay (luciferase-based ATP consumption), ROCK2
Type: biochemical
Settings: recombinant GST-tagged human ROCK2, luciferase-based ATP consumption; read-out: ROCK2 IC50
Description: In Vitro Rho Kinase Assay Rho kinase biochemical assays described below depend on firefly luciferase-based, indirect measurement of total ATP consumption by the kinase following incubation with substrate and ATP. […] After an additional 10 minute incubation at room temperature (about 22° C.), luminescence activity is measured on a Molecular Devices Analyst multi-mode plate reader or other suitable plate reader. […] Negative control activity is measured with DMSO lacking any test compound. […]

Sample records with IC50:
{"Compound": "Cc1c(-c2ccnc(N)n2)sc2ccc(C(=O)NCc3ccccc3OC(F)(F)F)cc12", "IC50": "> 5 µM"}
{"Compound": "Cc1c(-c2ccnc(N)n2)sc2ccc(C(=O)N(CCc3ccccc3)Cc3ccccc3)cc12", "IC50": "> 5 µM"}
{"Compound": "Cc1c(-c2ccnc(N)n2)sc2ccc(CNC(=O)C(C)c3ccc(CC(C)C)cc3)cc12 (centres unmarked)", "IC50": "> 5 µM"}
{"Compound": "Cc1c(-c2ccnc(N)n2)sc2ccc(C(=O)N(CCN(C)C)Cc3ccccc3)cc12", "IC50": "< 5 µM"}
{"Compound": "Cc1c(-c2ccnc(N)n2)sc2ccc(CNC(=O)c3ccc4c(c3)OCO4)cc12", "IC50": "< 5 µM"}

Give measured IC50 for every item shown.
1. Cc1c(-c2ccnc(N)n2)sc2ccc(C(=O)N[C@H](C)c3ccccc3)cc12
2. CCCCc1ccc(C(=O)NCc2ccc3sc(-c4ccnc(N)n4)c(C)c3c2)cc1
3. Cc1c(-c2ccnc(N)n2)sc2ccc(C(=O)N3CC(C)CC(C)C3)cc12 (centres unmarked)

### Response
1. < 5 µM
2. > 5 µM
3. < 5 µM

###

Molecular target: recombinant N-terminal GST-tagged human Rho kinase 2 (ROCK2, amino acids 1-552) (Homo sapiens)
Construct: ROCK2, amino acids 1-552; purchased Invitrogen Inc. PV3759
Test: In vitro Rho kinase assay (luciferase-based ATP consumption), ROCK2
Format: biochemical
Settings: recombinant GST-tagged human ROCK2, luciferase-based ATP consumption; read-out: ROCK2 IC50
Experimental: In Vitro Rho Kinase Assay Rho kinase biochemical assays described below depend on firefly luciferase-based, indirect measurement of total ATP consumption by the kinase following incubation with substrate and ATP. […] After an additional 10 minute incubation at room temperature (about 22° C.), luminescence activity is measured on a Molecular Devices Analyst multi-mode plate reader or other suitable plate reader. […] Negative control activity is measured with DMSO lacking any test compound. […]
Give measured IC50 for each item. Keep answers brief.

{"Molecule": "Cc1c(-c2ccnc(N)n2)sc2ccc(Cc3cccc(C(=O)Nc4ccc(N5CCOCC5)cc4)c3)cc12", "IC50": "< 5 µM"}
{"Molecule": "CC(=O)NCC(=O)NCc1ccc2sc(-c3ccnc(N)n3)c(C)c2c1", "IC50": "< 5 µM"}

Each of the following entries comes with a recorded value; kindly state IC50 for each.
1. COC(=O)C1CCN(C(=O)c2ccc3sc(-c4ccnc(N)n4)c(C)c3c2)CC1
2. Cc1c(-c2ccnc(N)n2)sc2ccc(C(=O)N3CCC(C)CC3)cc12
3. Cc1c(-c2ccnc(N)n2)sc2ccc(C(=O)N3CCCCC3C)cc12 (centres unmarked)
4. Cc1c(-c2ccnc(N)n2)sc2ccc(C(=O)N3CCCN(Cc4ccccc4)CC3)cc12
5. Cc1c(-c2ccnc(N)n2)sc2ccc(C(=O)N3CCN(c4cccc(C(F)(F)F)c4)CC3)cc12

### Response
1: > 5 µM; 2: < 5 µM; 3: < 5 µM; 4: < 5 µM; 5: > 5 µM

### Prompt Consider the molecule Cc1c(-c2ccnc(N)n2)sc2ccc(CNC(=O)CCc3ccccc3Br)cc12 . State its measured IC50.
### Response > 5 µM
